target: UniProt:O13428; test: Glucan synthase inhibition (polymerization assay, 96-well); type: biochemical; conditions: GS from C. albicans MY1055; 60 min incubation at 22° C.; read-out: Candida Albicans GS IC50 (converted)
Sequence (O13428 1-1897): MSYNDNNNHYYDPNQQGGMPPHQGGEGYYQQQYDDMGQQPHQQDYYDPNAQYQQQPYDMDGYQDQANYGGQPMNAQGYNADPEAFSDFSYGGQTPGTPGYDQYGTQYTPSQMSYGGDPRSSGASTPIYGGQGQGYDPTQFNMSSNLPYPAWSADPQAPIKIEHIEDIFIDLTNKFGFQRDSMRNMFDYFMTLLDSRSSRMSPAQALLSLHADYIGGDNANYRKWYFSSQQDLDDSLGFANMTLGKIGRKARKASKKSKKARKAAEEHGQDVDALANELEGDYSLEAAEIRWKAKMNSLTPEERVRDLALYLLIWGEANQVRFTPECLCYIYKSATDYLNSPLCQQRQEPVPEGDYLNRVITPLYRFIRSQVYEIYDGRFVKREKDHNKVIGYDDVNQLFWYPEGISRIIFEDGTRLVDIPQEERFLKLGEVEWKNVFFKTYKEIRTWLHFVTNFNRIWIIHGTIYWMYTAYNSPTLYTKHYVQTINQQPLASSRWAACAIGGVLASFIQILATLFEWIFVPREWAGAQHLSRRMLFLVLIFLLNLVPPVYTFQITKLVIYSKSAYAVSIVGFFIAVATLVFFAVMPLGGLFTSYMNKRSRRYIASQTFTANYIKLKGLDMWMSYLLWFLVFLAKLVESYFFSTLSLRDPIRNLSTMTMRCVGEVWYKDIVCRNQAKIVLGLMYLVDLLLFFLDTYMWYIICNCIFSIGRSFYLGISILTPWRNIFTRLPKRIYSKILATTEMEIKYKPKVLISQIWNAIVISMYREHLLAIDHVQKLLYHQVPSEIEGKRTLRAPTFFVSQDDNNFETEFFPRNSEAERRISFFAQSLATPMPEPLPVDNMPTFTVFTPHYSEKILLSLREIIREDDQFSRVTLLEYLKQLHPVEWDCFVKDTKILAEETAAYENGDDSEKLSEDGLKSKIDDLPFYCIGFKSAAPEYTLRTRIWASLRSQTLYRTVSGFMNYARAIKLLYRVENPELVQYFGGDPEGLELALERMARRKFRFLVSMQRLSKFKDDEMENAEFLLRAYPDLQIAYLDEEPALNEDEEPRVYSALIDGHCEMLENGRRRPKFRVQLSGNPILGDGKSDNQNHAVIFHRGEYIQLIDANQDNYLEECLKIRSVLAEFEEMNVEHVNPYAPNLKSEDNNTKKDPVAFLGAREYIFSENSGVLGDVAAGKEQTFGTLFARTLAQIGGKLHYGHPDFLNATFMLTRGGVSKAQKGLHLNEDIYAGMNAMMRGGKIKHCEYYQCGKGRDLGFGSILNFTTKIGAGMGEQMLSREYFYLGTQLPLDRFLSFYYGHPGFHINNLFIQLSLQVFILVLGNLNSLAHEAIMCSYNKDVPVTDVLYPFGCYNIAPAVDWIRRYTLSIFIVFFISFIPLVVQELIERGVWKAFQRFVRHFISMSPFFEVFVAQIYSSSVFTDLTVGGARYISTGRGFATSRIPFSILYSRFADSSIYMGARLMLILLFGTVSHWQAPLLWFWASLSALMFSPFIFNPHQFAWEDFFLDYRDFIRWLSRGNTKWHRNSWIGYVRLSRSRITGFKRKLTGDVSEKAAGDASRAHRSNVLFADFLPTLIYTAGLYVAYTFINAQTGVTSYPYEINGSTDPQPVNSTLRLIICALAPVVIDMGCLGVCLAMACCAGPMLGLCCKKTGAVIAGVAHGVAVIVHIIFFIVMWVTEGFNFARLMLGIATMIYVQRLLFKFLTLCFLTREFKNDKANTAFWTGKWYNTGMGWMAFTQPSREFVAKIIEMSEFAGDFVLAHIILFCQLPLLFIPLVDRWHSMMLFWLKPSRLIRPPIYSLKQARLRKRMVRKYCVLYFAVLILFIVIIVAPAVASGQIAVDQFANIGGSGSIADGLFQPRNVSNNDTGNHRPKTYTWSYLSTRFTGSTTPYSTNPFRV
Readout: IC50 (nM)
Give bare numbers, in nM.

Some entries whose results are on file:
CC(C)[C@@H](C)[C@@]1(C)CC[C@]2(C)[C@H]3CC[C@@H]4[C@@]5(COC[C@@]4(C)[C@@H](OC[C@](C)(N)C(C)C)[C@H](n4ncnc4C(=O)NCC(F)(F)F)C5)C3=CC[C@@]2(C)[C@@H]1C(=O)O ... 10.5
CNC1(CO[C@H]2[C@H](n3cncn3)C[C@@]34COC[C@]2(C)[C@@H]3CC[C@H]2C4=CC[C@@]3(C)[C@H](C(=O)O)[C@@](C)([C@H](C)C(C)C)CC[C@]23C)CCCCC1 ... 33.1
CC(C)[C@@H](C)[C@@]1(C)CC[C@]2(C)[C@H]3CC[C@@H]4[C@@]5(COC[C@@]4(C)[C@@H](OC[C@](C)(N)C(C)(C)C)[C@H](n4ncnc4C(N)=O)C5)C3=CC[C@@]2(C)[C@@H]1C(=O)O ... 4.31

Query: Give UniProt:O13428 IC50 for CN[C@@](C)(CO[C@H]1[C@H](n2nccc2-c2ccncc2)C[C@@]23COC[C@]1(C)[C@@H]2CC[C@H]1C3=CC[C@@]2(C)[C@H](C(=O)O)[C@@](C)([C@H](C)C(C)C)CC[C@]12C)C(C)C
Response: 17.8
